Reported values of TGI for individual entries
Test system: IGROV1 ovarian
Assay: NCI tumour cell line growth inhibition, 48 h

>  <molecule>
CC(N)CC(=O)O (stereo unspecified)

>  <TGI>
> 5000 µM

$$$$
>  <molecule>
CC(=O)N(CC(=O)C(=O)NNc1ccoc1)c1ccc(Cl)cc1

>  <TGI>
> 100 µM

$$$$
>  <molecule>
CC1=NNC(=S)NCCCN2CCN(CCCNC(=S)NN=C(C)C=NNC(=S)NCCCN3CCN(CCCNC(=S)NN=C1)CC3)CC2

>  <TGI>
> 100 µM

$$$$
>  <molecule>
CN1C(=NCCO)NS(=O)(=O)c2ccccc21

>  <TGI>
> 100 µM

$$$$

Output TGI of COc1ccccc1C1c2cc3c(cc2OC(N2CCCC2)C1C)OCO3 (stereo unspecified)
51.5 µM

Output TGI of COc1ccc(OC)c(Cc2cnc3nc(N)nc(N)c3c2C)c1
2.61 µM
